# Target Desc: human GYS1 (Homo sapiens (Human))
# Sequence (P13807 whole entry): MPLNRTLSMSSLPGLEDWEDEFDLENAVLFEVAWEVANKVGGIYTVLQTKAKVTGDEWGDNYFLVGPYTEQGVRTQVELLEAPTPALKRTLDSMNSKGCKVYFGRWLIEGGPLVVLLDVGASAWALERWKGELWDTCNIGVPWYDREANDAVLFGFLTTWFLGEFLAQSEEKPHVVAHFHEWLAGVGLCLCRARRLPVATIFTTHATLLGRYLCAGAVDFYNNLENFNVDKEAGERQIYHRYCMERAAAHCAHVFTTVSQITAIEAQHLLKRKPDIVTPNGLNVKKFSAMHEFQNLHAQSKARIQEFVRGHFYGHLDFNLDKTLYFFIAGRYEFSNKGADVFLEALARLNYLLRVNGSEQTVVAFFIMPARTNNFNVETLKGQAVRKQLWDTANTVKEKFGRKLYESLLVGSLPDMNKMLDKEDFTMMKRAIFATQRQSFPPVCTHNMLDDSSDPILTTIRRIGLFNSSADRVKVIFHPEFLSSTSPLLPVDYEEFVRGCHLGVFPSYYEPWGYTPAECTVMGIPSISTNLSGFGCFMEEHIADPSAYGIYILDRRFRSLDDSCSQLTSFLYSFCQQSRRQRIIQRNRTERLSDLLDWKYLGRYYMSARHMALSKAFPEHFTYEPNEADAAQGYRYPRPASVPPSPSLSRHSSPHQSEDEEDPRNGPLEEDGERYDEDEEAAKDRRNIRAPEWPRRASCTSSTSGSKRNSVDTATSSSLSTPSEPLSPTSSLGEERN
# Sequence (P46976 whole entry partner): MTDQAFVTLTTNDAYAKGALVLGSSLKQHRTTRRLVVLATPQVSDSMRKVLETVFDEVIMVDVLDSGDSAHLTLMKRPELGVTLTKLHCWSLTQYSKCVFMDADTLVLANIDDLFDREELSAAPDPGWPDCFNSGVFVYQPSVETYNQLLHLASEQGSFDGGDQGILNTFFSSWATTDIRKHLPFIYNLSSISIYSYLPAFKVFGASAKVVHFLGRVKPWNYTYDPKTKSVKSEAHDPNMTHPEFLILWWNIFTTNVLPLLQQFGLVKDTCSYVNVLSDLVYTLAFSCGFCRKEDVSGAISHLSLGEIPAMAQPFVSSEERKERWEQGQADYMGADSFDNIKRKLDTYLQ
# Method Notes: GYS1 coupled enzyme assay (PK/LDH)
# Measurement Conditions: recombinant hGYS1/GN1 protein; geometric mean of at least 2 assay runs
For each entry below, report its IC50 value.
Give bare numbers, in nM.

- COc1ccccc1[C@H](NC(=O)[C@@H]1CCC[C@@H]1C(=O)O)c1ccc(C(C)C)cc1 [Compound 39]: 3400
- Cc1ccccc1[C@H](NC(=O)[C@@H]1CCC[C@@H]1C(=O)O)c1ccc(C2CC2)cc1 [Compound 26]: 795
- CC(C)c1ccc([C@@H](NC(=O)[C@@H]2CCC[C@@H]2C(=O)O)c2cccc3c2[nH]c(=O)n3C)cc1F [Compound 7]: 884
- CC(C)c1ccc([C@@H](NC(=O)[C@@H]2CCC[C@@H]2C(=O)O)c2ccccc2)cc1 [Compound 41]: 637
- O=C(O)[C@H]1CCC[C@H]1C(=O)N[C@@H](c1ccccc1)c1ccc(C2CC2)c(F)c1 [Compound 17]: 1580
- CC(C)c1ccc([C@@H](NC(=O)[C@@H]2CCC[C@@H]2C(=O)O)c2ccccc2)nc1 [Compound 36]: 837

Moving on to another molecule below.
What IC50 value was documented for this molecule, Cc1ccccc1[C@H](NC(=O)[C@@H]1CCC[C@@H]1C(=O)O)c1ccc(C(C)C)cn1 [Compound 22] ?
1260

* * *

# Target Desc: hGYS1 enzyme, glycogen synthesis in HeLa cells (Homo sapiens (Human), UniProt P13807)
# Method Notes: GYS1 cell based assay (glycogen synthesis in HeLa cells, Glucose-glo)
# Measurement Conditions: starved HeLa cells, 24 h incubation; geometric mean of at least 2 assay runs; read-out: Cellular IC50
Recorded Metric: IC50

The following compounds have reported results that may help.
- CC(C)c1ccc([C@@H](NC(=O)[C@@H]2CCC[C@@H]2C(=O)O)c2cccc3c2NC(=O)C3)cc1: 31.3 µM
- CC(C)c1ccc([C@@H](NC(=O)C2CC(O)CC2C(=O)O)c2ccccc2)cc1 (single isomer, unassigned) [Compound 21]: > 100 µM
- CC1(c2ccc([C@@H](NC(=O)[C@@H]3CCC[C@@H]3C(=O)O)c3ccccc3)cc2)CC1: > 60.8 µM

Let us examine a further case.
Need IC50 of CC(C)c1ccc([C@@H](NC(=O)C2CC(NC(=O)OC(C)(C)C)CC2C(=O)O)c2ccccc2)cc1 (single isomer, unassigned) , thanks.
> 100 µM

* * *

# Target Desc: human GYS2 (Homo sapiens (Human), UniProt P54840)
# Sequence (P54840 whole entry): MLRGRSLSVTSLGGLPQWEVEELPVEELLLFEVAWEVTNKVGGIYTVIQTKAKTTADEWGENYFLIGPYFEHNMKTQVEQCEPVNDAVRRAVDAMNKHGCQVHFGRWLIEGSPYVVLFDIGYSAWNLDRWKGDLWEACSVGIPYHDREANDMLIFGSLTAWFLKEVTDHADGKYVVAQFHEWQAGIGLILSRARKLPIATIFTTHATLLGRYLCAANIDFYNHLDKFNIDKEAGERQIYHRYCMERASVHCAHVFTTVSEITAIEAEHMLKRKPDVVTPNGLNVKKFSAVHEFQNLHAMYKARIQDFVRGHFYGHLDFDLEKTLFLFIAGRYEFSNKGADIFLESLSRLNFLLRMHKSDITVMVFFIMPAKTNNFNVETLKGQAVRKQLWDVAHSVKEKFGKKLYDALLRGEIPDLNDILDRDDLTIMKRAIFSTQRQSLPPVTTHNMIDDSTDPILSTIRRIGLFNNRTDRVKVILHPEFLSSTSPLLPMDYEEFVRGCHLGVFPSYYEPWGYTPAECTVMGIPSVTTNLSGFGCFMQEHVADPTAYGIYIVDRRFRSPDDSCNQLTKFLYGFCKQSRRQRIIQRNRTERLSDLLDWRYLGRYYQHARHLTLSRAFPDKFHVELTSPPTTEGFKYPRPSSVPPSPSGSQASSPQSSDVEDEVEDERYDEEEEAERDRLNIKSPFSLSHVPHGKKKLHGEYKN
# Sequence (P46976 whole entry partner): as the sequence (P46976 whole entry partner) above
# Method Notes: GYS2 coupled enzyme assay (PK/LDH)
# Measurement Conditions: recombinant hGYS2/GN1 protein; geometric mean of at least 2 assay runs
Record form. Attribute: pIC50. Fill in for each entry.
Give bare numbers, as −log10 of the molar value.

• CC(C)c1ccc(C(NC(=O)C2CCCC2C(=O)O)c2cccs2)cc1 (single isomer, unassigned) [Compound 44] = 4.93
• CC(C)c1ccc([C@@H](NC(=O)[C@@H]2CCC[C@@H]2C(=O)O)c2cccs2)cc1 [Compound 45] = 4.01
• Cc1ccccc1[C@H](NC(=O)[C@@H]1CCC[C@@H]1C(=O)O)c1ccc(C(C)C)cc1 [Compound 40] = 4.97

Here is the next item to consider.
Name the reported pIC50 value associated with the compound COc1ccccc1[C@H](NC(=O)[C@@H]1CCC[C@@H]1C(=O)O)c1ccc(C(C)C)cc1 [Compound 39]
4.18
